# Assay system: 5-hydroxytryptamine receptor 2A (Homo sapiens) (UniProt P28223)
# Sequence (P28223 whole entry, looked up): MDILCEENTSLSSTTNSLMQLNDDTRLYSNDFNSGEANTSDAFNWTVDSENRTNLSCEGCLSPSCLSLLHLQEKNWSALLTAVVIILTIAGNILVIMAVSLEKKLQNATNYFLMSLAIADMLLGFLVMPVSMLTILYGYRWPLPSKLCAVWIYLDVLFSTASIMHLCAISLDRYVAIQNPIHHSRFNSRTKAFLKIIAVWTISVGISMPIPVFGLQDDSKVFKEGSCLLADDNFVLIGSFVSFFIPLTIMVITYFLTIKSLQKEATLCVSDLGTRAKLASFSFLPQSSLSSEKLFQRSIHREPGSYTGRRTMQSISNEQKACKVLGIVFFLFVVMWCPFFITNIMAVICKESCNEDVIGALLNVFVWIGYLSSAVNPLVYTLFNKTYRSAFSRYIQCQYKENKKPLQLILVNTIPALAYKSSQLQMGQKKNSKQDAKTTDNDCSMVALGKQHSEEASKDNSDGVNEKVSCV
# Experimental protocol: 5-hydroxytryptamine receptor 2A (HTR2A) small molecule agonists, cell-based qHTS assay (AID 1963587); further: nearly all actives have a fitted effect of over 30% in size
# Particulars: HTR2A-CHO cells, calcium flux fluorescence, agonist mode; series mostly up to 76.8 µM
Inconclusive results are not listed. Activity calls are given as the source filed them. The call rests on the fitted dose curve.
Parameter: activation

Here is how some compounds turned out for activation.
>>> df
                                   compound   parameter  experimental_value
0  O=C(c1ccc(F)cc1)C1CCN(CCn2c(=O)[nH]c3ccccc3c2=O)CC1  activation            inactive
1  Cc1ccc(CCn2c3c(c4cc(Cl)ccc42)CN(C)CC3)cn1  activation            inactive
2  CC1=C(C)C(=O)C(CCCCC#CCCCC#CCO)=C(C)C1=O  activation            inactive
3                   CCCCCCCCCCCC(=O)N(CC)CC  activation            inactive
4                Nc1ccc(F)c([N+](=O)[O-])c1  activation            inactive
5                        O=P(O)(O)Oc1ccccc1  activation            inactive
6            OCCCCC(O)CO (stereo not given)  activation            inactive
7                       CCCCCCCCCC(=O)N(C)C  activation            inactive

// moving on: another record for activation
Problem: Sample CCCCCC#CC(=O)OC — what was its activation?
Solution: inactive
